Data credit: patent US20250163162A1

Reported IL-1β secretion, LPS treated monocytes, at 0.1 µM values for the following binders.
# target-entity: T1, IL10Rα/IL2Rγ receptor (human) (UniProt Q13651)
# T1 sequence (looked up) 1: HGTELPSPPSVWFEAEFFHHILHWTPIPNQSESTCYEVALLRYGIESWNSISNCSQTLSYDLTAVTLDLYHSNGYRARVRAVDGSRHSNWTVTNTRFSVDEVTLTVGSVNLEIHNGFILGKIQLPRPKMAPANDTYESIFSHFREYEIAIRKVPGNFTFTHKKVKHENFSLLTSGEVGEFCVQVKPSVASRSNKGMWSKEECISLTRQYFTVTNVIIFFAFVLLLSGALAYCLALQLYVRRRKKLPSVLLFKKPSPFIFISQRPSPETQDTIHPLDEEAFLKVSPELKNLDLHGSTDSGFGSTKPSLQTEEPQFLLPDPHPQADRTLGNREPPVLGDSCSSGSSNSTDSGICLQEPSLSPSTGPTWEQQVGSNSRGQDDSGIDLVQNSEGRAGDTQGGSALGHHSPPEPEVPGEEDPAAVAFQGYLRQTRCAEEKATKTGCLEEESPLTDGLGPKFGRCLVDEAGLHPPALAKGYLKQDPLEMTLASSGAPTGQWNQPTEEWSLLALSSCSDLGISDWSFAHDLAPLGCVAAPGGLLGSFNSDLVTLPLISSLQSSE
# T1 sequence (looked up) 2: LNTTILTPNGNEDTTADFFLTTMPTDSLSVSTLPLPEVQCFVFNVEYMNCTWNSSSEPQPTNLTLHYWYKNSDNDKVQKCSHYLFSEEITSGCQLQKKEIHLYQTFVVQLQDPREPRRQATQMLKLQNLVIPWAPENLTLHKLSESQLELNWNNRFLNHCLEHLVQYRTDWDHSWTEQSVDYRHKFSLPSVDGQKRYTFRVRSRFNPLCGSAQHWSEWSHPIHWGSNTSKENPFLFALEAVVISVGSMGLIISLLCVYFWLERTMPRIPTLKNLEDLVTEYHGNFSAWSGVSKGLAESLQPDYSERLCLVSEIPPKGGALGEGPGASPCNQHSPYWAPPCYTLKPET
# assay-comment: cell-based or functional assay
Value expressed in pg/mL; do not type the unit.

Some solved entries appear below for comparison.
binder	endpoint-unit	number
hIL10Ra_VHH14 - hIL2Rg_VHH19, linker GS, tag his (bispecific antibody, not shown: small tags and cut ends) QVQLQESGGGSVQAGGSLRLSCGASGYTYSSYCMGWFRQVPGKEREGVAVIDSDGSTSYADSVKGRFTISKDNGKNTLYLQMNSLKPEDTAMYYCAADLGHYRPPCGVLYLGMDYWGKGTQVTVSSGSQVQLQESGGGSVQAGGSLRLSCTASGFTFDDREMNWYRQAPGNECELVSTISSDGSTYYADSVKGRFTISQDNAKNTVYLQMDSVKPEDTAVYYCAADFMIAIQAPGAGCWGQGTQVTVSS	pg/mL	6590
hIL10Ra_VHH14 - hIL2Rg_VHH19, linker GGSGGS, tag his (bispecific antibody, not shown: small tags and cut ends) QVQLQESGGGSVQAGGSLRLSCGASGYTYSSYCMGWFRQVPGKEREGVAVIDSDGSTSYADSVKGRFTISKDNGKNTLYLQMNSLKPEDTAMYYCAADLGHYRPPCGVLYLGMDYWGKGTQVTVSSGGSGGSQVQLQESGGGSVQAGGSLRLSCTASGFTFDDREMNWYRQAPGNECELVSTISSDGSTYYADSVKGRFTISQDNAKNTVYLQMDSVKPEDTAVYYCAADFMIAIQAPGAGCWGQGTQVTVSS	pg/mL	4960
hIL10Ra_VHH14 - hIL2Rg_VHH19, No linker, tag his (bispecific antibody, not shown: small tags and cut ends) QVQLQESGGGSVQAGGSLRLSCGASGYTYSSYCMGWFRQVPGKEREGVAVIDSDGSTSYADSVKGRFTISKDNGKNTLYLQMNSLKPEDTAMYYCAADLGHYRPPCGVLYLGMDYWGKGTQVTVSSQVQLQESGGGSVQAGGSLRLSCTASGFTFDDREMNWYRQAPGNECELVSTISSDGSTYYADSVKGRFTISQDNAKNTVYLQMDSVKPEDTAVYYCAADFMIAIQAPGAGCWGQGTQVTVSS	pg/mL	5290

QUERY: I am curious: what IL-1β secretion, LPS treated monocytes, at 0.1 µM value has been reported for hIL10Ra_VHH14 - hIL2Rg_VHH19, linker GGGS, tag his (bispecific antibody, not shown: small tags and cut ends) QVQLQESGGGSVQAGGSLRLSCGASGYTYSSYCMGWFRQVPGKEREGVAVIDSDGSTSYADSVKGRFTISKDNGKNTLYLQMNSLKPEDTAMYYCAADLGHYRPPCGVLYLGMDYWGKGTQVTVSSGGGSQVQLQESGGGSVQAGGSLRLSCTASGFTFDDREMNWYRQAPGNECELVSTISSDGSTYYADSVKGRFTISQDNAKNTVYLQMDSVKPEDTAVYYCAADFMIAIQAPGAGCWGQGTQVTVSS ?
RESULT: 6120
